assay.protocol: in vivo
experimental.setup: both, cynomolgus monkey, iv, 15 mg/kg, Tmax
reported.metric: Tmax (h)
# output: bare number, implied unit h

Query :: Recorded Tmax of O=C(NN1C(=O)C2C3C=CC(C4CC34)C2C1=O)c1ccc(C(F)(F)F)cc1 (stereo not shown) , please.
Result :: 4

---

assay.protocol: in vivo
experimental.setup: female, New Zealand White, rabbit, iv, 30 mg/kg, Cmax
reported.metric: Cmax (ng/mL)
# output: bare number, implied unit ng/mL

Query :: Recorded Cmax of O=C(NN1C(=O)C2C3C=CC(C4CC34)C2C1=O)c1ccc(C(F)(F)F)cc1 (stereo not shown) [ST-246] , please.
Result :: 37000

---

assay.protocol: in vivo
experimental.setup: male, BALB/c, mouse, iv, 7.6 mg/kg, Cmax
reported.metric: Cmax (µg/mL)
# output: bare number, implied unit µg/mL

Query :: Recorded Cmax of O=C(NN1C(=O)C2C3C=CC(C4CC34)C2C1=O)c1ccc(C(F)(F)F)cc1 (stereo not shown) , please.
Result :: 53.8

---

assay.protocol: in vivo
experimental.setup: male, New Zealand White, rabbit, po, 100 mg/kg
reported.metric: AUC(0-t) (ng·h/mL)
# output: bare number, implied unit ng·h/mL

Query :: Recorded AUC(0-t) of O=C(NN1C(=O)C2C3C=CC(C4CC34)C2C1=O)c1ccc(C(F)(F)F)cc1 (stereo not shown) , please.
Result :: 26400

---

assay.protocol: in vivo
experimental.setup: male, New Zealand White, rabbit, iv, 3 mg/kg, AUC0-24
reported.metric: AUC(0-t)
Give the value; after it, write the unit.

Query :: Recorded AUC(0-t) of O=C(NN1C(=O)C2C3C=CC(C4CC34)C2C1=O)c1ccc(C(F)(F)F)cc1 (stereo not shown) , please.
Result :: 1870 ng·h/mL

---

assay.protocol: in vivo
experimental.setup: male, BALB/c, mouse, iv, 34.3 mg/kg, AUC0-24
reported.metric: AUC(0-t)
Give the value; after it, write the unit.

Query :: Recorded AUC(0-t) of O=C(NN1C(=O)C2C3C=CC(C4CC34)C2C1=O)c1ccc(C(F)(F)F)cc1 (stereo not shown) , please.
Result :: 798 µg·h/mL

---

assay.protocol: in vivo
experimental.setup: female, New Zealand White, rabbit, iv, 60 mg/kg, T1/2
reported.metric: half-life (h)
# output: bare number, implied unit h

Query :: Recorded half-life of O=C(NN1C(=O)C2C3C=CC(C4CC34)C2C1=O)c1ccc(C(F)(F)F)cc1 (stereo not shown) , please.
Result :: 4.6

---

assay.protocol: in vivo
experimental.setup: both, cynomolgus, cynomolgus monkey, po, 3 mg/kg
reported.metric: bioavailability (%)
# output: bare number, implied unit %

Query :: Recorded bioavailability of O=C(NN1C(=O)C2C3C=CC(C4CC34)C2C1=O)c1ccc(C(F)(F)F)cc1 (stereo not shown) [ST-246] , please.
Result :: 77

---

assay.protocol: in vivo
experimental.setup: male, New Zealand White, rabbit, iv, 60 mg/kg, T1/2
reported.metric: half-life (h)
# output: bare number, implied unit h

Query :: Recorded half-life of O=C(NN1C(=O)C2C3C=CC(C4CC34)C2C1=O)c1ccc(C(F)(F)F)cc1 (stereo not shown) [ST-246] , please.
Result :: 5.7

---

assay.protocol: physchem
experimental.setup: water, thermodynamic from solid, ST-246 Solubility
reported.metric: solubility

Query :: Recorded solubility of O=C(NN1C(=O)C2C3C=CC(C4CC34)C2C1=O)c1ccc(C(F)(F)F)cc1 (stereo not shown) , please.
Result :: < 0.1 mg/mL

---

assay.protocol: in vivo
experimental.setup: both, cynomolgus, cynomolgus monkey, po, 20 mg/kg
reported.metric: bioavailability (%)
# output: bare number, implied unit %

Query :: Recorded bioavailability of O=C(NN1C(=O)C2C3C=CC(C4CC34)C2C1=O)c1ccc(C(F)(F)F)cc1 (stereo not shown) , please.
Result :: 31

---

assay.protocol: in vivo
experimental.setup: both, cynomolgus monkey, po, 10 mg/kg, Cmax
reported.metric: Cmax
Give the value; after it, write the unit.

Query :: Recorded Cmax of O=C(NN1C(=O)C2C3C=CC(C4CC34)C2C1=O)c1ccc(C(F)(F)F)cc1 (stereo not shown) [ST-246] , please.
Result :: 1080 ng/mL

---

assay.protocol: in vivo
experimental.setup: both, cynomolgus monkey, terminal elimination half-life
reported.metric: half-life (h)
# output: bare number, implied unit h

Query :: Recorded half-life of O=C(NN1C(=O)C2C3C=CC(C4CC34)C2C1=O)c1ccc(C(F)(F)F)cc1 (stereo not shown) , please.
Result :: 8.9

---

assay.protocol: in vivo
experimental.setup: both, cynomolgus monkey, po, 3 mg/kg
reported.metric: AUC(0-t) (ng·h/mL)
# output: bare number, implied unit ng·h/mL

Query :: Recorded AUC(0-t) of O=C(NN1C(=O)C2C3C=CC(C4CC34)C2C1=O)c1ccc(C(F)(F)F)cc1 (stereo not shown) [ST-246] , please.
Result :: 3860

---

assay.protocol: in vivo
experimental.setup: both, cynomolgus monkey, po, 0.3 mg/kg
reported.metric: half-life (h)
# output: bare number, implied unit h

Query :: Recorded half-life of O=C(NN1C(=O)C2C3C=CC(C4CC34)C2C1=O)c1ccc(C(F)(F)F)cc1 (stereo not shown) , please.
Result :: 4

---

assay.protocol: in vivo
experimental.setup: both, cynomolgus monkey, po, 20 mg/kg, AUCINF—obs
reported.metric: AUC(0-inf) (ng·h/mL)
# output: bare number, implied unit ng·h/mL

Query :: Recorded AUC(0-inf) of O=C(NN1C(=O)C2C3C=CC(C4CC34)C2C1=O)c1ccc(C(F)(F)F)cc1 (stereo not shown) , please.
Result :: 15500

---

assay.protocol: in vivo
experimental.setup: both, cynomolgus monkey, po, 30 mg/kg, Cmax
reported.metric: Cmax (ng/mL)
# output: bare number, implied unit ng/mL

Query :: Recorded Cmax of O=C(NN1C(=O)C2C3C=CC(C4CC34)C2C1=O)c1ccc(C(F)(F)F)cc1 (stereo not shown) , please.
Result :: 1990

---

assay.protocol: in vivo
experimental.setup: both, cynomolgus monkey, po, 3 mg/kg
reported.metric: Tmax (h)
# output: bare number, implied unit h

Query :: Recorded Tmax of O=C(NN1C(=O)C2C3C=CC(C4CC34)C2C1=O)c1ccc(C(F)(F)F)cc1 (stereo not shown) [ST-246] , please.
Result :: 3.3

---

assay.protocol: in vivo
experimental.setup: both, cynomolgus monkey, iv, 20 mg/kg, Cmax
reported.metric: Cmax (ng/mL)
# output: bare number, implied unit ng/mL

Query :: Recorded Cmax of O=C(NN1C(=O)C2C3C=CC(C4CC34)C2C1=O)c1ccc(C(F)(F)F)cc1 (stereo not shown) , please.
Result :: 11800

---

assay.protocol: in vivo
experimental.setup: male, BALB/c, mouse, iv, 34.3 mg/kg, Cmax
reported.metric: Cmax (µg/mL)
# output: bare number, implied unit µg/mL

Query :: Recorded Cmax of O=C(NN1C(=O)C2C3C=CC(C4CC34)C2C1=O)c1ccc(C(F)(F)F)cc1 (stereo not shown) [ST-246] , please.
Result :: 191

---

assay.protocol: in vivo
experimental.setup: female, mouse, po, 2000 mg/kg, Cmax
reported.metric: Cmax (µg/mL)
# output: bare number, implied unit µg/mL

Query :: Recorded Cmax of O=C(NN1C(=O)C2C3C=CC(C4CC34)C2C1=O)c1ccc(C(F)(F)F)cc1 (stereo not shown) [ST-246] , please.
Result :: 69.9

---

assay.protocol: in vivo
experimental.setup: both, cynomolgus monkey, iv, 15 mg/kg, T1/2
reported.metric: half-life (min)
# output: bare number, implied unit min

Query :: Recorded half-life of O=C(NN1C(=O)C2C3C=CC(C4CC34)C2C1=O)c1ccc(C(F)(F)F)cc1 (stereo not shown) [ST-246] , please.
Result :: 546

---

assay.protocol: in vivo
experimental.setup: both, cynomolgus monkey, iv, 15 mg/kg, CL
reported.metric: clearance
Give the value; after it, write the unit.

Query :: Recorded clearance of O=C(NN1C(=O)C2C3C=CC(C4CC34)C2C1=O)c1ccc(C(F)(F)F)cc1 (stereo not shown) , please.
Result :: 5.85 mL/min/kg

---

assay.protocol: in vivo
experimental.setup: female, BALB/c, mouse, iv, 2.3 mg/kg, AUC0-24
reported.metric: AUC(0-t)
Give the value; after it, write the unit.

Query :: Recorded AUC(0-t) of O=C(NN1C(=O)C2C3C=CC(C4CC34)C2C1=O)c1ccc(C(F)(F)F)cc1 (stereo not shown) , please.
Result :: 87800 ng·h/mL

---

assay.protocol: in vivo
experimental.setup: female, BALB/c, mouse, po, 30 mg/kg
reported.metric: CL/F (mL/min/kg)
# output: bare number, implied unit mL/min/kg

Query :: Recorded CL/F of O=C(NN1C(=O)C2C3C=CC(C4CC34)C2C1=O)c1ccc(C(F)(F)F)cc1 (stereo not shown) , please.
Result :: 1.7
